molecular target: Progesterone receptor (Bos taurus, UniProt Q690N0); assay: DRUGMATRIX: Progesterone radioligand binding (ligand: [3H] R-5020); assay type: tissue-based, Uterus; settings: Not Active = under 50% inhibition at 10 µM
Sequence (Q690N0 whole entry): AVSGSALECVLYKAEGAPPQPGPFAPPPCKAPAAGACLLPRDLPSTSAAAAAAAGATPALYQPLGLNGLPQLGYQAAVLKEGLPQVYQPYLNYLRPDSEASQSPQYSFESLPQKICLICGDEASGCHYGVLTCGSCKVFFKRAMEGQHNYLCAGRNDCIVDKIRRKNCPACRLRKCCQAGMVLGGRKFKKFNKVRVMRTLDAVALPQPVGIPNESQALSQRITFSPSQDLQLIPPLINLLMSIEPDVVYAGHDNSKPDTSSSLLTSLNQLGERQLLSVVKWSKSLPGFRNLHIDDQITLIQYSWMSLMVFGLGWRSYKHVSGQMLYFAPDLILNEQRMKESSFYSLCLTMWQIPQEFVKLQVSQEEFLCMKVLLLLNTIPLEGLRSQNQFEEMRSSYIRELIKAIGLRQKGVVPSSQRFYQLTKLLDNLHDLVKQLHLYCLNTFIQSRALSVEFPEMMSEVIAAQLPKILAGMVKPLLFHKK
endpoint.name: IC50

Worked examples follow.
{"molecule": "O=C(O)CCCCC1CCSS1 (stereo not given)", "IC50": "Not Active"}
{"molecule": "C[C@]12CC[C@@H]3c4ccc(O)cc4CC[C@H]3[C@@H]1C[C@@H](O)[C@@H]2O", "IC50": "Not Active"}
{"molecule": "CC[C@H]1[C@@H]2C[C@H]3[C@@H]4N(C)c5ccccc5[C@]45C[C@@H]([C@@H]2[C@H]5O)N3[C@@H]1O", "IC50": "Not Active"}
{"molecule": "Cc1cc(O)cc(C)c1Cl", "IC50": "Not Active"}
{"molecule": "CC1=NN(c2ccccc2)C(=O)C1", "IC50": "Not Active"}
{"molecule": "O=C(O)c1cc(-c2ccc(F)cc2F)ccc1O", "IC50": "Not Active"}

List reported IC50 for each of these molecules:
1. C[N+](C)(C)C[C@H](O)CC(=O)[O-]
2. COc1ccc2c(c1OC)C(=O)O[C@@H]2[C@H]1c2c(cc3c(c2OC)OCO3)CCN1C
3. C[C@H]1O[C@H](O[C@H]2[C@H](O)[C@@H](O)[C@@H](O[C@H]3[C@H](O)[C@@H](O)C(O)O[C@@H]3CO)O[C@@H]2CO)[C@H](O)[C@@H](O)[C@@H]1N[C@H]1C=C(CO)[C@@H](O)[C@H](O)[C@H]1O (stereo not given in full)

Reply:
Not Active
Not Active
Not Active

* * *

Target: Cholecystokinin receptor type A (Homo sapiens, UniProt P32238); further: in other assays of this panel Not Active means under 50% inhibition at 10 µM
Sequence (P32238 whole entry): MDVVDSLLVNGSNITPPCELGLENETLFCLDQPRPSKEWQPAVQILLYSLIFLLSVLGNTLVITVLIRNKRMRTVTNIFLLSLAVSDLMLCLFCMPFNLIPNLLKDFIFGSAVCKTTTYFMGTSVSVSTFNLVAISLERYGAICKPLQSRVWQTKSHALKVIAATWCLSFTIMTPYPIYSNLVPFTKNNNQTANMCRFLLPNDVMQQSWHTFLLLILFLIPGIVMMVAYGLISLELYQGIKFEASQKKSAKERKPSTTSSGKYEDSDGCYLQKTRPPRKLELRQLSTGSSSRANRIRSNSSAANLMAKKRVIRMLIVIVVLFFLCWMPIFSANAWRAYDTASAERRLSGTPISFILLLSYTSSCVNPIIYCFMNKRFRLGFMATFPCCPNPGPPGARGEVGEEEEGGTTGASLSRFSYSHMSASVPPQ
Format: cell membranes, Membrane
Conditions: 1321-n1
endpoint.name: IC50

Worked examples follow.
{"compound": "O=C1C[C@@H]2OCC=C3CN4CC[C@]56c7ccccc7N1[C@H]5[C@H]2[C@H]3C[C@H]46", "IC50": "Not Active"}
{"compound": "CCC1=C(C)CN(C(=O)NCCc2ccc(S(=O)(=O)NC(=O)N[C@H]3CC[C@H](C)CC3)cc2)C1=O [GLIMEPIRIDE]", "IC50": "Not Active"}
{"compound": "CCCCCCCCNC(C)C(O)c1ccc(SC(C)C)cc1 (centres undefined)", "IC50": "Not Active"}
{"compound": "COC(=O)Nc1nc2cc(C(=O)c3ccc(F)cc3)ccc2[nH]1", "IC50": "Not Active"}
{"compound": "CC1=NN(c2ccccc2)C(=O)C1", "IC50": "Not Active"}

List reported IC50 for each of these compounds:
1. CCCNC(=O)NS(=O)(=O)c1ccc(Cl)cc1 [CHLORPROPAMIDE]
2. CN1CCN(CCCN2c3ccccc3Sc3ccc(C(F)(F)F)cc32)CC1

Reply:
["Not Active", "Not Active"]

List reported IC50 for each of these compounds:
1. N=C(N)c1ccc(OCCCCCOc2ccc(C(=N)N)cc2)cc1
2. CS(=O)(=O)Nc1ccc([N+](=O)[O-])cc1Oc1ccccc1 [NIMESULIDE]

Reply:
1: Not Active; 2: Not Active

* * *

assay: DRUGMATRIX: Leukotriene, BLT (LTB4) radioligand binding (ligand: [3H]LTB4); format: cell membranes, Membrane; conditions: u-937; Not Active = under 50% inhibition at 10 µM

{"substance": "COLISTIN", "Ki": "Not Active"}
{"substance": "COBALTOUS CHLORIDE", "Ki": "Not Active"}
{"substance": "TRANSPLATIN", "Ki": "Not Active"}
{"substance": "ZIRCONIUM(IV) CHLORIDE", "Ki": "Not Active"}

* * *

Target: Alpha-1D adrenergic receptor (Homo sapiens); further: in other assays of this panel Not Active means under 50% inhibition at 10 µM
Sequence (P25100 whole entry): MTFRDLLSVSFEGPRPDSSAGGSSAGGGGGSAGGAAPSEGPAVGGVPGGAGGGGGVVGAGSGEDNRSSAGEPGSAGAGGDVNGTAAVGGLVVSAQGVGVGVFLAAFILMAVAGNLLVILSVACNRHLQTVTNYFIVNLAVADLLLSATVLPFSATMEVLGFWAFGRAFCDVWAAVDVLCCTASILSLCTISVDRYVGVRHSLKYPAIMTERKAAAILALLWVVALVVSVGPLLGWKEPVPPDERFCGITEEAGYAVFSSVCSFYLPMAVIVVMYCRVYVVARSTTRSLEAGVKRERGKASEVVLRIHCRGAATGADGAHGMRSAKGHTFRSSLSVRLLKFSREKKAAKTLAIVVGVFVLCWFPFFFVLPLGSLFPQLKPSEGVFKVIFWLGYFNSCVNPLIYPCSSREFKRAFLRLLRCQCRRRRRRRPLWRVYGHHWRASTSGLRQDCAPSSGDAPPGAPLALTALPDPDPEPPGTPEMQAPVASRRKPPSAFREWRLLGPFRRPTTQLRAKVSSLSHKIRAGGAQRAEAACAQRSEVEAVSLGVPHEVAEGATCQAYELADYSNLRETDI
Format: cell membranes, HEK293, Membrane
Settings: hek293
endpoint.name: IC50

Worked examples follow.
{"compound": "ClC(Cl)(Cl)Cl [CARBON TETRACHLORIDE]", "target.or.test.system": "Alpha-1D adrenergic receptor (Homo sapiens)", "IC50": "Not Active"}
{"compound": "O=C(O)c1ccccc1O [SALICYLIC ACID]", "target.or.test.system": "Alpha-1D adrenergic receptor (Homo sapiens)", "IC50": "Not Active"}
{"compound": "O=c1c(-c2ccc(O)cc2)coc2cc(O)cc(O)c12 [GENISTEIN]", "target.or.test.system": "Alpha-1D adrenergic receptor (Homo sapiens)", "IC50": "Not Active"}
{"compound": "CCCNC(C)C(=O)Nc1ccccc1C (stereo unspecified) [PRILOCAINE]", "target.or.test.system": "Alpha-1D adrenergic receptor (Homo sapiens)", "IC50": "Not Active"}
{"compound": "O=C(c1ccccc1F)N1CCC(Cc2ccccc2)CC1", "target.or.test.system": "Alpha-1D adrenergic receptor (Homo sapiens)", "IC50": "Not Active"}

List reported IC50 for each of these compounds:
1. COC(=O)Nc1nc2cc(C(=O)c3ccc(F)cc3)ccc2[nH]1 [FLUBENDAZOLE]
2. O=C(O)CCCc1cccs1
3. COc1cc(OC)c(C(=O)CCCN2CCCC2)c(OC)c1 [BUFLOMEDIL]
4. O=C(O)c1cc(-c2ccc(F)cc2F)ccc1O [DIFLUNISAL]

Reply:
Not Active
Not Active
Not Active
Not Active

* * *

Recorded IC50 values (UniProtKB P15207) are given below.
Sequence (P15207 whole entry S389L): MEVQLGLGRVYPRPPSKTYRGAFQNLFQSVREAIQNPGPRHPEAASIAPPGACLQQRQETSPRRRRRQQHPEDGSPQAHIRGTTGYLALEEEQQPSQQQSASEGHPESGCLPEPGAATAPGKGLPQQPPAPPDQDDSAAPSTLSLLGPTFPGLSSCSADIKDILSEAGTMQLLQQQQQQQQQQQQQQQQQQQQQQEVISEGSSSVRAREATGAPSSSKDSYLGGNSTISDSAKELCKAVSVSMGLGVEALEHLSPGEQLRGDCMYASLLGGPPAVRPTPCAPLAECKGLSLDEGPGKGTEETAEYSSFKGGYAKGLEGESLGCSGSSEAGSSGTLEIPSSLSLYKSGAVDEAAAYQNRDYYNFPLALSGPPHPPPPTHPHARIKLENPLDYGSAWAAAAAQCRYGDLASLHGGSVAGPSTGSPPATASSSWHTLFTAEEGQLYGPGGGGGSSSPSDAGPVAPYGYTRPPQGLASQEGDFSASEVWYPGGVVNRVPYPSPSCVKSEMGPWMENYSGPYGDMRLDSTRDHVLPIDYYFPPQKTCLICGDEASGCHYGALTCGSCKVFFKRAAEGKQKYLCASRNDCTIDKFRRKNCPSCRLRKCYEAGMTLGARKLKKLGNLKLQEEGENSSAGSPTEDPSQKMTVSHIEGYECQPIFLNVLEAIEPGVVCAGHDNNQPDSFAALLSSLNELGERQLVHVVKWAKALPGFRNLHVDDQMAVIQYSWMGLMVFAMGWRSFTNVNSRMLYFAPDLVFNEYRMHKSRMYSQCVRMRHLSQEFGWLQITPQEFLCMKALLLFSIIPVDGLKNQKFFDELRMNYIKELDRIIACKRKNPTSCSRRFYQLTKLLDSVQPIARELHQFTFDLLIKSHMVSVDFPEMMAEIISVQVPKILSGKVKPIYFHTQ
Numbers only, in µM.

{"compound": "Clc1ccc(COC(Cn2ccnc2)c2ccc(Cl)cc2Cl)c(Cl)c1 (configuration not stated)", "endpoint.name": "IC50", "quantitative.readout": 7.09}

Consider the record given below.
Task item: So what's the measured IC50 for this one? Cc1c(O)cccc1C(=O)N[C@@H](CSc1ccccc1)[C@H](O)CN1C[C@H]2CCCC[C@H]2C[C@H]1C(=O)NC(C)(C)C
Reply: 36.4

* * *

assay: DRUGMATRIX: Calcium Channel Type L, Phenylalkylamine radioligand binding (ligand: [3H] (-)-Desmethoxyverapamil (D-888)); format: cell membranes, Rattus norvegicus, Wistar, Brain, Membrane; conditions: Not Active = under 50% inhibition at 10 µM; read-out: IC50
Provide the recorded log10 IC50 for the entries that follow.
Kindly note that the scale is log10 and the underlying IC50 is in µM.

{"compound": "CN1CCCC(CN2c3ccccc3Sc3ccccc32)C1 (stereo not drawn) [MEPAZINE]", "quantitative.readout": 0.19}
{"compound": "COC(=O)[C@H]1[C@H]2C[C@@H]3c4[nH]c5cc(OC)ccc5c4CCN3C[C@H]2C[C@@H](OC(=O)c2cc(OC)c(OC)c(OC)c2)[C@@H]1OC [RESERPINE]", "quantitative.readout": 0.31}
{"compound": "CN1CCN(C(c2ccccc2)c2ccccc2)CC1 [CYCLIZINE]", "quantitative.readout": 0.67}
{"compound": "Cc1c(O)cccc1C(=O)N[C@@H](CSc1ccccc1)[C@H](O)CN1C[C@H]2CCCC[C@H]2C[C@H]1C(=O)NC(C)(C)C", "quantitative.readout": 1.26}
{"compound": "CCN(CC)CCCC(C)Nc1c2ccc(Cl)cc2nc2ccc(OC)cc12 (stereo not drawn) [QUINACRINE]", "quantitative.readout": -0.13}

List reported log10 IC50 for each of these compounds:
1. N=C(N)c1ccc(OCCCCCOc2ccc(C(=N)N)cc2)cc1 [PENTAMIDINE]
2. CCCCCCCCNC(C)C(O)c1ccc(SC(C)C)cc1 (stereo not drawn) [SULOCTIDIL]
3. CN(C)CCC=C1c2ccccc2CCc2ccccc21 [AMITRIPTYLINE]

Reply:
0.14
-0.28
-0.08

Sourced from ChEMBL document CHEMBL1909046
